# Tested target: T1, A beta oligomer (synthetic A beta1-40, HCl form, 0.1 mg/ml in PBS, incubated at 37 degrees C for one hour) (UniProt P05067 672-711)
# T1 construct: domain: A beta1-40; non-fibrous multimer of the peptide; also called A beta 1-40 oligomer
# Procedure text: SPR (Biacore 3000)
Assign koff to each entry below.
Just the number in s⁻¹, nothing appended.

# get_value(readout='koff', item= IR-062 antibody (antibody, mouse IgG2b, V domains shown, mouse IgG2b) VH: DVQLVESGGGLVQPGGSRKLSCAASGFTFSSFGMHWVRQAPEKGLEWVAYISSGSSTIYYADTVKGRFTISRDNPKNTLFLQMTSLRSEDTAMYYCARYYHYAMDYWGQGTSVTVSS VL: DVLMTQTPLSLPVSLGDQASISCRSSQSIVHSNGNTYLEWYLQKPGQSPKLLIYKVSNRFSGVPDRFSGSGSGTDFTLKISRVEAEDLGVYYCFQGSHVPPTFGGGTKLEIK ) 0.139

Ok, now IR-118 antibody (antibody, mouse IgG2a, V domains shown, mouse IgG2a) VH: QVQLKESGPGLVAPSQSLSITCTISGFSLTSYGVHWVRQPPGKGLEWLVVIWSDGSTTYNSALKSRLSISKDNSKSQLFLKMNSLQTDDTAMYYCARHSYRYGLMDYWGQGTSVTVSS VL: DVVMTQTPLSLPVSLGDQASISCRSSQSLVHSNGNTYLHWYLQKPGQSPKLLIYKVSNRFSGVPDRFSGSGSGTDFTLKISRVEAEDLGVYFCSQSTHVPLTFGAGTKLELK 0.00153

Ok, now IR-067 antibody (antibody, mouse IgG2b, V domains shown, mouse IgG2b) VH: DVQLVESGGGLVQPGGSRKLSCAASGFTFSSFGMHWVRQAPEKGLEWVAYISSGSSTIYYADTVKGRFTISRDNPKNTLFLQMTSLRSEDTAMYYCARSGGNYLMDYWGQGTSVTVSS VL: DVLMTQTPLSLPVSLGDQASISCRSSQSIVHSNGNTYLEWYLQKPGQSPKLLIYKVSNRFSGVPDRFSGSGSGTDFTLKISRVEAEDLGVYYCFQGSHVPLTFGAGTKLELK 0.118

Numbers sourced from patent US20120177664A1.
